Tested on: Staphylococcus aureus
Assay: Antibacterial activity against methicillin-resistant Staphylococcus aureus 15012406 assessed as reduction in bacterial growth incubated for 24 hrs by CLSI based Mueller-Hinton broth assay
Assay type: functional
Each entry below lists one item and its recorded MIC50 value.
State the answer as a number, implicitly in mg/L.

# annotated cases, reported MIC50 shown
| record_smiles | MIC50 / mg/L |
| --- | --- |
| C[C@H]1CCC[C@@H]([C@@H](O)c2ccoc2)C1=O | 512 |
| C[C@H]1CCC[C@@H]([C@H](O)c2ccoc2)C1=O | 512 |
| CC(=O)O[C@@H](c1ccoc1)[C@@H]1CCC[C@H](C)C1=O | 128 |

Shifting focus to the compound that follows.
Prompt: Could you share which MIC50 value was measured for `CC(=O)O[C@H](c1ccoc1)[C@@H]1CCC[C@H](C)C1=O` ?
Completion: 128

Where do these numbers come from? They come from ChEMBL document CHEMBL5625218.
